Where do the numbers come from? From ChEMBL document CHEMBL1777689.

Assay: AUC (0 to infinity) in CD-1 mouse at 2 mg/kg, iv
Type: ADME, organism-based
Set-up: time infinity, dose 2 mg/kg, route intravenous
Conditions: plasma
measurement-name: AUC(0-inf) (ng·h/mL)
Reply with just the number (in ng·h/mL).

Prompt: What value of measured AUC(0-inf) is listed for `Cc1c2c(n3c1CCCN1CCC[C@@H]1CNc1cc-3ccc1C(N)=O)CC(C)(C)CC2=O` ?
Response: 1740

====

The compounds below have reported IC50 for Voltage-gated inwardly rectifying potassium channel KCNH2 (Homo sapiens, UniProt Q12809).
Reply with just the number (in µM).

[[record]]
smiles_entry = "CC(=O)N1CCN2CCCc3c(C)c4c(n3-c3ccc(C(N)=O)c(c3)NC[C@H]2C1)CC(C)(C)CC4=O"
display_unit = "µM"
measured = 24.4

[[record]]
smiles_entry = "Cc1c2c(n3c1CCCN1CC[C@H](CNc4cc-3ccc4C(N)=O)C1)CC(C)(C)CC2=O"
display_unit = "µM"
measured = 0.44


Prompt: What value of measured IC50 is listed for `Cc1c2c(n3c1CCCN1CCC[C@@H]1CNc1cc-3ccc1C(N)=O)CC(C)(C)CC2=O` ?
Response: 2.6

Prompt: Try this compound too: `Cc1c2c(n3c1CCCN1C[C@@H](F)C[C@@H]1CNc1cc-3ccc1C(N)=O)CC(C)(C)CC2=O`
Response: 16.4

Prompt: Try this compound too: `Cc1c2c(n3c1CCCN1CCOC[C@@H]1CNc1cc-3ccc1C(N)=O)CC(C)(C)CC2=O`
Response: 12.5

Prompt: Try this compound too: `Cc1c2c(n3c1CCCN1CCC[C@@H](C1)Nc1cc-3ccc1C(N)=O)CC(C)(C)CC2=O`
Response: 3.4

Prompt: Try this compound too: `Cc1c2c(n3c1CCCN1CCCC[C@@H]1[C@H](C)Nc1cc-3ccc1C(N)=O)CC(C)(C)CC2=O`
Response: 1.5

====

Entries and their inhibition at 3 µM values follow.
Biological target: CYP2D6 (Homo sapiens, UniProt P10635)
Sequence (P10635 whole entry): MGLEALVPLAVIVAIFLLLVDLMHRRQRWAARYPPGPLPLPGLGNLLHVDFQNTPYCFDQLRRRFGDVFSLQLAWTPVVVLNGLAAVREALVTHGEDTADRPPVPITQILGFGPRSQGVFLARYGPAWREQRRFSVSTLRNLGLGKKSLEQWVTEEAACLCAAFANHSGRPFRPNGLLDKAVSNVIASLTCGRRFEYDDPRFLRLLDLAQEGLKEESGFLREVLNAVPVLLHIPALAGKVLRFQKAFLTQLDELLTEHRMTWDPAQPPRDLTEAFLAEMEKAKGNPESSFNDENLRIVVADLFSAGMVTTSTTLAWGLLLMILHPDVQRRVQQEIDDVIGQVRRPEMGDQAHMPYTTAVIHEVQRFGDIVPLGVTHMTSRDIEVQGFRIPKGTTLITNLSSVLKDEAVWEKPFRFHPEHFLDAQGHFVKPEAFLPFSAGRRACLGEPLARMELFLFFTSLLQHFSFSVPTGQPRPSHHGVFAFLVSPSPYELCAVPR
Experiment: Inhibition of CYP2D6 at 3 uM
Type: ADME

Known results for molecules:
[[record]]
smiles_entry = "Cc1c2c(n3c1CCN1CCC[C@@H]1CNc1cc-3ccc1C(N)=O)CC(C)(C)CC2=O"
measured = "6%"

[[record]]
smiles_entry = "Cc1c2c(n3c1CCCN1CCNC[C@H]1CNc1cc-3ccc1C(N)=O)CC(C)(C)CC2=O"
measured = "3%"

[[record]]
smiles_entry = "CC(=O)N1CCN2CCCc3c(C)c4c(n3-c3ccc(C(N)=O)c(c3)NC[C@H]2C1)CC(C)(C)CC4=O"
measured = "4%"

[[record]]
smiles_entry = "Cc1c2c(n3c1CCCN1CCOC[C@@H]1CNc1cc-3ccc1C(N)=O)CC(C)(C)CC2=O"
measured = "0%"

[[record]]
smiles_entry = "Cc1c2c(n3c1CCCCN1CCC[C@@H]1CNc1cc-3ccc1C(N)=O)CC(C)(C)CC2=O"
measured = "2%"


Prompt: What value of measured inhibition at 3 µM is listed for `Cc1c2c(n3c1CCCN1C[C@@H](N4CCCC4)C[C@@H]1CNc1cc-3ccc1C(N)=O)CC(C)(C)CC2=O` ?
Response: 69%

Prompt: Try this molecule too: `Cc1c2c(n3c1CCCN1C[C@H](O)C[C@@H]1CNc1cc-3ccc1C(N)=O)CC(C)(C)CC2=O`
Response: 33%
